SYSTEM_UNDER_TEST: UniProtKB P78527
TEST_METHOD_NOTES: Evaluation of inhibitory activity against DNA-PK (HTRF kinase assay, GST-cMyc-p53 substrate)
Type: biochemical
RUN_CONDITIONS: compound concentration 0.1 μM; read-out: EXP_VALUE(% Inhibition) DNA-PK(h) 0.1 μM
METRIC_NAME: inhibition at 0.1 µM (%)

> print(dat)
                               smiles.record  endpoint.value
 1  C[C@H](Nc1ncnc2[nH]ccc(=O)c12)c1c(Cl)c2cccc(B3OC(C)(C)C(C)(C)O3)c2c(=O)n1-c1ccccc1              89
 2  C[C@H](Nc1ncnc2[nH]ccc(=O)c12)c1c(Cl)c2cccc(SCc3ccc(Cl)cc3)c2c(=O)n1-c1ccccc1              54
 3  C[C@H](Nc1ncnc2[nH]ccc(=O)c12)c1c(Cl)c2cccc(-c3ccc(Cl)cc3)c2c(=O)n1-c1ccccc1              65
 4  COCCOc1cccc2c(Cl)c([C@H](C)Nc3ncnc4[nH]ccc(=O)c34)n(-c3ccccc3)c(=O)c12              80
 5  C[C@H](Nc1ncnc2[nH]ccc(=O)c12)c1cc2cccc(-c3ccc(C#N)cc3)c2c(=O)n1-c1ccccc1              85
 6  C[C@H](Nc1ncnc2[nH]ccc(=O)c12)c1c(Cl)c2cccc(-c3ccc(C#N)cc3)c2c(=O)n1-c1ccccc1              86
 7  C[C@H](Nc1ncnc2[nH]ccc(=O)c12)c1c(Cl)c2cccc(-c3ccc(-c4nnc(N)s4)cc3)c2c(=O)n1-c1ccccc1              92
 8  C[C@H](Nc1ncnc2[nH]ccc(=O)c12)c1cc2cccc(-c3cccnc3)c2c(=O)n1-c1ccccc1              21
 9  C[C@H](Nc1ncnc2[nH]ccc(=O)c12)c1c(Cl)c2cccc(-c3ccc4c(ccn4C)c3)c2c(=O)n1-c1ccccc1              91
10  Cc1cc(-c2cccc3c(Cl)c([C@H](C)Nc4ncnc5[nH]ccc(=O)c45)n(-c4ccccc4)c(=O)c23)cc(C)c1O              96
11  C[C@H](Nc1ncnc2[nH]ccc(=O)c12)c1c(Cl)c2cccc(-c3ccc(N4CCOCC4)cc3)c2c(=O)n1-c1ccccc1              99
12  C[C@H](Nc1ncnc2[nH]ccc(=O)c12)c1c(Cl)c2cccc(-c3cccc(C=O)c3)c2c(=O)n1-c1ccccc1              98
13  C[C@H](Nc1ncnc2[nH]ccc(=O)c12)c1c(Cl)c2cccc(B(O)O)c2c(=O)n1-c1ccccc1              62
14  C[C@H](Nc1ncnc2[nH]ccc(=O)c12)c1c(Cl)c2cccc(-c3ccc4ncn(C)c4c3)c2c(=O)n1-c1ccccc1              98
15  C[C@H](Nc1ncnc2[nH]ccc(=O)c12)c1c(Cl)c2cccc(-c3ccc4c(c3)OCCO4)c2c(=O)n1-c1ccccc1              97
16  C[C@H](Nc1ncnc2[nH]ccc(=O)c12)c1cc2cccc(-c3ccc(N(C)C)cc3)c2c(=O)n1-c1ccccc1              55
17  C[C@H](Nc1ncnc2[nH]ccc(=O)c12)c1c(Cl)c2cccc(C#Cc3ccc(N(C)C)cc3)c2c(=O)n1-c1ccccc1              75
18  C[C@H](Nc1ncnc2[nH]ccc(=O)c12)c1c(Cl)c2cccc(-n3cccn3)c2c(=O)n1-c1ccccc1            57.3
19  C[C@H](Nc1ncnc2[nH]ccc(=O)c12)c1c(Cl)c2cccc(-c3ccccc3)c2c(=O)n1-c1ccccc1              89
20  C[C@H](Nc1ncnc2[nH]ccc(=O)c12)c1c(Cl)c2cccc(N3CCC(NC(=O)OC(C)(C)C)CC3)c2c(=O)n1-c1ccccc1              64
21  Cc1c(-c2cccc3c(Cl)c([C@H](C)Nc4ncnc5[nH]ccc(=O)c45)n(-c4ccccc4)c(=O)c23)cnn1C              94
22  C[C@H](Nc1ncnc2[nH]ccc(=O)c12)c1c(Cl)c2cccc(-c3ccc(SC(C)(C)C)cc3)c2c(=O)n1-c1ccccc1              48
23  C[C@H](Nc1ncnc2[nH]ccc(=O)c12)c1c(Cl)c2cccc(-c3ccco3)c2c(=O)n1-c1ccccc1              99
24  C[C@H](Nc1ncnc2[nH]ccc(=O)c12)c1c(Cl)c2cccc(-c3cnn(C)c3)c2c(=O)n1-c1ccccc1             100
25  C[C@H](Nc1ncnc2[nH]ccc(=O)c12)c1c(Cl)c2cccc(C#Cc3cccnc3)c2c(=O)n1-c1ccccc1              95
26  C[C@H](Nc1ncnc2[nH]ccc(=O)c12)c1c(Cl)c2cccc(C(=O)O)c2c(=O)n1-c1ccccc1              76
27  C[C@H](Nc1ncnc2[nH]ccc(=O)c12)c1c(Cl)c2cccc(N3Cc4ccccc4C3)c2c(=O)n1-c1ccccc1              67
